# system_under_test: FXR ligand binding domain (Homo sapiens)
# Sequence (Q96RI1 193-472 isoform Q96RI1-2): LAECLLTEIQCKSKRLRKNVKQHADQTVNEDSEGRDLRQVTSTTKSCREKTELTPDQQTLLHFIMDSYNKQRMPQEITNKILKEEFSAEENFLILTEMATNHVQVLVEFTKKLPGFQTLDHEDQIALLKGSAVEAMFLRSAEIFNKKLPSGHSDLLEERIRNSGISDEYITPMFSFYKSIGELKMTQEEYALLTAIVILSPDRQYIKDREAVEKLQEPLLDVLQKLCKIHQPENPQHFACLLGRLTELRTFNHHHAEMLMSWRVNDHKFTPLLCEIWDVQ
# assay: Radioligand Binding Assay (scintillation proximity radioligand displacement)
# test_settings: GST-FXR LBD fusion protein on SPA beads, test compound 6×10^−9 M to 2.5×10^−5 M
measured_endpoint: IC50 (nM)
Answers are plain numbers, in nM.

Guide cases for IC50, answers given:
smiles: CCCOc1cc(Cl)ccc1-c1nc2cc(F)c(F)cc2n1Cc1ccc(-c2nnn[nH]2)cc1F
system_under_test: FXR ligand binding domain (Homo sapiens)
IC50 / nM: 50

smiles: O=C(O)CCc1ccc(Cn2c(-c3ccc(Cl)cc3OCC3CC3)nc3cc(F)c(F)cc32)cc1
system_under_test: FXR ligand binding domain (Homo sapiens)
IC50 / nM: 1300

smiles: O=C(O)COc1ccc(COc2cc(Cl)ccc2-c2nc3cc(F)c(F)cc3n2Cc2ccccc2)cc1
system_under_test: FXR ligand binding domain (Homo sapiens)
IC50 / nM: 800

smiles: O=C(O)COc1ccc(COc2cc(Cl)ccc2-c2nc3cc(F)c(F)cc3n2CC2CCCCC2)cc1
system_under_test: FXR ligand binding domain (Homo sapiens)
IC50 / nM: 100

Look at each compound and report its IC50.
1. Fc1cc2nc(-c3cccnc3OCC3CCCC3)n(CC3CCCCC3)c2cc1F
2. Fc1cc2nc(-c3cccnc3OCc3ccccc3Cl)n(CC3CCCCC3)c2cc1F
3. Fc1cc2nc(-c3ccccc3COc3ccc(-c4nnn[nH]4)cc3F)n(CC3CCCCC3)c2cc1F
4. Fc1cc2nc(-c3cccnc3OCC3CC3)n(Cc3cccc(Cl)c3)c2cc1F

result:
1: 200; 2: 700; 3: 4; 4: 3600

====

# system_under_test: FXR ligand binding domain (Homo sapiens, UniProt Q96RI1)
# assay: Radioligand Binding Assay (scintillation proximity radioligand displacement)
# test_settings: GST-FXR LBD fusion protein on SPA beads, test compound 6×10^−9 M to 2.5×10^−5 M
Provide the recorded pIC50 for the entries that follow.
Give bare numbers, as −log10 of the molar value.

compound: O=C(O)c1ccc(COc2cc(Cl)ccc2-c2nc3cc(F)c(F)cc3n2CC2CCCCC2)cc1
pIC50: 6.70
//
compound: Fc1cc2nc(-c3ccc(Cl)cc3OCC3CC3)n(Cc3ccccc3)c2cc1F
pIC50: 5.72

Look at each compound and report its pIC50.
1. O=C(O)Cc1ccc(Cn2c(-c3ccc(Cl)cc3OCC3CCCC3)nc3cc(F)c(F)cc32)cc1
2. Fc1cc2nc(-c3ccc(Cl)cc3OCc3ccc(-c4nnn[nH]4)cc3F)n(CCC3CCCCC3)c2cc1F
3. c1ccc(-c2nc3ccccc3n2CC2CCCCC2)c(CCc2ccc(-c3nnn[nH]3)cc2)c1
4. Fc1cc2nc(-c3ccc(Cl)cc3OCc3ccccc3Cl)n(CC3CCCCC3)c2cc1F
5. Fc1cc2nc(-c3ccc(Cl)cc3OCC3CCCCC3)n(Cc3ccc(-c4nnn[nH]4)cc3F)c2cc1F
6. CC1CCC(Cn2c(-c3ccccc3CCc3ccc(-c4nnn[nH]4)cc3)nc3ccccc32)CC1 (stereo not shown)

result:
1. 6.15
2. 7.05
3. 7.52
4. 6.52
5. 7.70
6. 8.00

Look at each compound and report its pIC50.
1. O=C(O)c1ccc(COc2ncccc2-c2nc3cc(F)c(F)cc3n2Cc2ccccc2)cc1
2. Fc1cc2nc(-c3cccnc3OCC3CCCC3)n(Cc3cccc(Cl)c3)c2cc1F
3. Fc1cc2nc(-c3cccnc3OCC3CCCC3)n(Cc3ccccc3)c2cc1F
4. O=C(O)c1ccc(CCc2ccccc2-c2nc3ccccc3n2CC2CCCCC2)cc1
5. Fc1cc2nc(-c3ccc(Cl)cc3OCCc3ccc(-c4nnn[nH]4)cc3)n(CC3CCCCC3)c2cc1F

result:
1. 4.98
2. 5.82
3. 5.42
4. 7.05
5. 7.05

Look at each compound and report its pIC50.
1. O=C(O)COc1ccc(CCc2ccccc2-c2nc3ccccc3n2CC2CCCCC2)cc1
2. Fc1cc2nc(-c3ccc(Cl)cc3OCc3ccc(-c4nnn[nH]4)cc3)n(CC3CCCCC3)c2cc1F

result:
7.10
7.30
